experimentalParameters: E. coli (K-12) lysate 0.1 U/mL, compound 200 μM, lysate activities normalized
quantityName: apparent first-order rate constant of hydrolysis

Consider the reported apparent first-order rate constant of hydrolysis for these compounds:
For reference, reported apparent first-order rate constant of hydrolysis for NCCCC[C@@H](NC(=O)[C@@H](CCCCN)NC(=O)CCC(=O)OC[C@@H](NC(=O)C(Cl)Cl)[C@H](O)c1ccc([N+](=O)[O-])cc1)C(=O)O [Compound 2b] stands at 0.317 h⁻¹

The reported value for O=C(O)CNC(=O)[C@@H](CO)NC(=O)CCC(=O)OC[C@@H](NC(=O)C(Cl)Cl)[C@H](O)c1ccc([N+](=O)[O-])cc1 [Compound 1d] in terms of apparent first-order rate constant of hydrolysis is 1.267 h⁻¹

The measured apparent first-order rate constant of hydrolysis associated with O=C(CCC(=O)OC[C@@H](NC(=O)C(Cl)Cl)[C@H](O)c1ccc([N+](=O)[O-])cc1)NCC(=O)N[C@H](CO)C(=O)O [Compound 1c] reads 3.763 h⁻¹

More entries:
Measured apparent first-order rate constant of hydrolysis, NCCCC[C@H](NC(=O)[C@H](CCCCN)NC(=O)CCC(=O)OC[C@@H](NC(=O)C(Cl)Cl)[C@H](O)c1ccc([N+](=O)[O-])cc1)C(=O)O [Compound 2c] : 0.310 h⁻¹

The values you see were collected from paper PMC6902879.
